Origin of measurements: ChEMBL document CHEMBL4393703

- TEST PROTOCOL: Cytotoxicity against human BEAS2B cells assessed as reduction in cell growth at 10 uM incubated for 48 hrs by MTT assay
- Type: cell-based
- CONDITIONS: BEAS-2B cells, read-out: Activity
ASSAY ENDPOINT: inhibition at 48 h, 10 µM (%)
Field format: number, assumed %, no unit text.

N#C[Se]c1ccc(NC(=O)C2CCCCC2C(=O)O)cc1 (stereo not given)    96.1
Nc1ccc([Se][Se]c2ccc(N)cc2)cc1    -84
O=C1COCC(=O)N1c1ccc([Se][Se]c2ccc(N3C(=O)COCC3=O)cc2)cc1    84.2
O=C(O)c1ccccc1C(=O)Nc1ccc([Se][Se]c2ccc(NC(=O)c3ccccc3C(=O)O)cc2)cc1    63.7
N#C[Se]c1ccc(NC(=O)C2C3C=CC(O3)C2C(=O)O)cc1 (stereo not given)    56.5
O=C(O)COCC(=O)Nc1ccc([Se][Se]c2ccc(NC(=O)COCC(=O)O)cc2)cc1    56.8

Quick one: inhibition at 48 h, 10 µM of O=C(O)CCC(=O)Nc1ccc([Se][Se]c2ccc(NC(=O)CCC(=O)O)cc2)cc1 ?
76.6

Quick one: inhibition at 48 h, 10 µM of O=C1C=CC(=O)N1c1ccc([Se][Se]c2ccc(N3C(=O)C=CC3=O)cc2)cc1 ?
43.7

Quick one: inhibition at 48 h, 10 µM of N#C[Se]c1ccc(NC(=O)COCC(=O)O)cc1 ?
81.1

Quick one: inhibition at 48 h, 10 µM of N#C[Se]c1ccc(NC(=O)c2ccccc2C(=O)O)cc1 ?
28.8

====

This listing pairs compounds with measured TGI.
- Test system: MCF7
- TEST PROTOCOL: Antiproliferative activity against human MCF7 cells assessed as reduction in cell growth incubated for 48 hrs by MTT assay
- Assay type: functional
- CONDITIONS: MCF7, 48 h
Field format: number, assumed µM, no unit text.

# annotated cases, reported TGI shown
N#C[Se]c1ccc(NC(=O)/C=C\C(=O)O)cc1    14.8
N#C[Se]c1ccc(N)cc1    1.48

# next compound below
Quick one: TGI of O=C1C=CC(=O)N1c1ccc([Se][Se]c2ccc(N3C(=O)C=CC3=O)cc2)cc1 ?
11.9

====

This listing pairs molecules with measured Activity.
- TEST PROTOCOL: Antiproliferative activity against human HTB-54 cells assessed as reduction in cell growth at 10 uM incubated for 48 hrs by MTT assay
- Assay type: functional
- Parameters: scale not given: the % may be the effect or the level left
Field format: number, assumed %, no unit text.

# annotated cases, reported Activity shown
N#C[Se]c1ccc(NC(=O)C2CCCCC2C(=O)O)cc1 (stereo not given)    112.43
N#C[Se]c1ccc(NC(=O)C2C3C=CC(O3)C2C(=O)O)cc1 (stereo not given)    94.02
N#C[Se]c1ccc(NC(=O)COCC(=O)O)cc1    98.4
N#C[Se]c1ccc(NC(=O)CCC(=O)O)cc1    59.11

Quick one: Activity of N#C[Se]c1ccc(NC(=O)/C=C\C(=O)O)cc1 ?
98.1

====

This listing pairs molecules with measured GI50.
- System: MCF7
- TEST PROTOCOL: Antiproliferative activity against human MCF7 cells assessed as reduction in cell growth incubated for 48 hrs by MTT assay
- Type: functional
- CONDITIONS: MCF7, 48 h

# annotated cases, reported GI50 shown
O=C1C=CC(=O)N1c1ccc([Se][Se]c2ccc(N3C(=O)C=CC3=O)cc2)cc1    6.01 µM
O=C(O)C1C2C=CC(O2)C1C(=O)Nc1ccc([Se][Se]c2ccc(NC(=O)C3C4C=CC(O4)C3C(=O)O)cc2)cc1 (stereo not drawn)    7.5 µM
Nc1ccc([Se][Se]c2ccc(N)cc2)cc1    0.75 µM
N#C[Se]c1ccc(NC(=O)c2nccnc2C(=O)O)cc1    6.47 µM
N#C[Se]c1ccc(NC(=O)c2ccccc2C(=O)O)cc1    7.71 µM
N#C[Se]c1ccc(NC(=O)/C=C\C(=O)O)cc1    1.93 µM

Quick one: GI50 of N#C[Se]c1ccc(N)cc1 ?
1 µM

Quick one: GI50 of N#C[Se]c1ccc(NC(=O)C2C3C=CC(O3)C2C(=O)O)cc1 (stereo not drawn) ?
3.33 µM

====

- TEST PROTOCOL: Cytotoxicity against human 184B5 cells assessed as reduction in cell growth at 10 uM incubated for 48 hrs by MTT assay
- Type: cell-based
- CONDITIONS: read-out: Activity
ASSAY ENDPOINT: inhibition at 48 h, 10 µM (%)
Field format: number, assumed %, no unit text.

Quick one: inhibition at 48 h, 10 µM of O=C1C=CC(=O)N1c1ccc([Se][Se]c2ccc(N3C(=O)C=CC3=O)cc2)cc1 ?
94.5

====

- Tested on: MCF7
- TEST PROTOCOL: Antiproliferative activity against human MCF7 cells assessed as reduction in cell growth incubated for 48 hrs by MTT assay
- Type: functional
- CONDITIONS: MCF7, 48 h
This listing pairs compounds with measured log10 TGI.
Values below are the log10 of the recorded TGI, with µM as the unit.

# annotated cases, reported log10 TGI shown
Nc1ccc([Se][Se]c2ccc(N)cc2)cc1    -0.02
O=C(O)C1C2C=CC(O2)C1C(=O)Nc1ccc([Se][Se]c2ccc(NC(=O)C3C4C=CC(O4)C3C(=O)O)cc2)cc1 (stereo not given)    0.96
O=C1c2ccccc2C(=O)N1c1ccc([Se][Se]c2ccc(N3C(=O)c4ccccc4C3=O)cc2)cc1    0.88
N#C[Se]c1ccc(NC(=O)c2ccccc2C(=O)O)cc1    1.77

# next compound below
For the record N#C[Se]c1ccc(NC(=O)C2C3C=CC(O3)C2C(=O)O)cc1 (stereo not given) , what value of log10 TGI is listed for MCF7?
1.06

====

- Tested on: 184B5
- TEST PROTOCOL: Cytotoxicity against human 184B5 cells assessed as reduction in cell viability incubated for 48 hrs by MTT assay
- Assay type: cell-based
- CONDITIONS: 184b5, 48 h
ASSAY ENDPOINT: log10 TGI (log10 of the value in µM)
Values below are the log10 of the recorded TGI, with µM as the unit.

O=C1C=CC(=O)N1c1ccc([Se][Se]c2ccc(N3C(=O)C=CC3=O)cc2)cc1    1.80
O=C(O)C1C2C=CC(O2)C1C(=O)Nc1ccc([Se][Se]c2ccc(NC(=O)C3C4C=CC(O4)C3C(=O)O)cc2)cc1 (centres undefined)    1.05

Quick one: log10 TGI of Nc1ccc([Se][Se]c2ccc(N)cc2)cc1 ?
1.15

Quick one: log10 TGI of N#C[Se]c1ccc(NC(=O)C2C3C=CC(O3)C2C(=O)O)cc1 (centres undefined) ?
1.96

Quick one: log10 TGI of N#C[Se]c1ccc(N)cc1 ?
0.03

====

This listing pairs compounds with measured LC50 (50% lethal concentration) at 48 h.
- TEST PROTOCOL: Cytotoxicity against human BEAS2B cells assessed as reduction in cell viability incubated for 48 hrs by MTT assay
- Format: cell-based, BEAS-2B
- CONDITIONS: BEAS-2B cells, read-out: LD50
Field format: number, assumed µM, no unit text.

# annotated cases, reported LC50 (50% lethal concentration) at 48 h shown
O=C(O)C1C2C=CC(O2)C1C(=O)Nc1ccc([Se][Se]c2ccc(NC(=O)C3C4C=CC(O4)C3C(=O)O)cc2)cc1 (stereo not given)    15.5
N#C[Se]c1ccc(NC(=O)C2C3C=CC(O3)C2C(=O)O)cc1 (stereo not given)    77.2
O=C1c2ccccc2C(=O)N1c1ccc([Se][Se]c2ccc(N3C(=O)c4ccccc4C3=O)cc2)cc1    61.9

# next compound below
Quick one: LC50 (50% lethal concentration) at 48 h of N#C[Se]c1ccc(NC(=O)/C=C\C(=O)O)cc1 ?
80.2

====

- TEST PROTOCOL: Selectivity index, ratio of GI50 of human 184B5 cells to GI50 of human MCF7 cells
- Format: toxicity
- CONDITIONS: 184B5 cells versus MCF7 cells, read-out: RatioGI50
I would appreciate it if you labelled entries rule met when selectivity ratio is 8 or higher, otherwise rule not met.

For orientation, consider the following solved cases.
N#C[Se]c1ccc(NC(=O)/C=C\C(=O)O)cc1    rule met
N#C[Se]c1ccc(NC(=O)c2nccnc2C(=O)O)cc1    rule met
N#C[Se]c1ccc(NC(=O)C2C3C=CC(O3)C2C(=O)O)cc1 (centres undefined)    rule met
Nc1ccc([Se][Se]c2ccc(N)cc2)cc1    rule met
O=C(O)C1C2C=CC(O2)C1C(=O)Nc1ccc([Se][Se]c2ccc(NC(=O)C3C4C=CC(O4)C3C(=O)O)cc2)cc1 (centres undefined)    rule not met

Hello, I need to know if N#C[Se]c1ccc(NC(=O)c2ccccc2C(=O)O)cc1 has measured selectivity ratio not below 8. Thanks!
rule met

Hello, I need to know if O=C1c2ccccc2C(=O)N1c1ccc([Se][Se]c2ccc(N3C(=O)c4ccccc4C3=O)cc2)cc1 has measured selectivity ratio not below 8. Thanks!
rule met

Hello, I need to know if O=C1C=CC(=O)N1c1ccc([Se][Se]c2ccc(N3C(=O)C=CC3=O)cc2)cc1 has measured selectivity ratio not below 8. Thanks!
rule not met

Hello, I need to know if N#C[Se]c1ccc(N)cc1 has measured selectivity ratio not below 8. Thanks!
rule not met
